# test-summary: chemical genetic growth profiling, strain panel (AID 1159580);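 note: tested at 20 µM; growth read once vehicle control cultures reached saturation at 30 °C; 1 = growth at the plate median or of vehicle wells; lower values mean less growth of the strain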
# stated-conditions: S. cerevisiae deletion strains, growth OD, strain TSCII
The campaign covered roughly 5,500 compounds. About 2,000 (36%) were called active. Inconclusive results (about 18%) are left out. Cut-off read from the data, not from the text of the source: active = normalized growth mostly below about 0.91 (no sharp cut-off); inconclusive = no clear call, values can overlap the other calls; inactive = mostly above about 0.92. The list shows a part of the results.
Outcomes: 1 for active, 0 for inactive

* CC(=O)Oc1ccc2c(=O)c(Oc3ccc(Cl)cc3)c(C)oc2c1 | 0
* O=C(NNc1c(Cl)cccc1Cl)c1ccc([N+](=O)[O-])o1 | 0
* CCC1(c2ccccc2)OC(c2cc(Cl)cc(Cl)c2O)Nc2ccccc21 (stereo unspecified) | 0
* Cc1nn(Cc2cccc(C(=O)O/N=C(/N)c3ccc(Cl)cc3)c2)c(C)c1Br | 0
* N#Cc1c(N)sc2c1CCc1ccccc1-2 | 0
* O=C(NCc1ccc(F)c(Cl)c1)Nc1csc([N+](=O)[O-])c1 | 0
* CC1CCc2c(sc3ncnc(Sc4ccccc4)c23)C1 (stereo unspecified) | 0
* N/C(=N/OC(=O)c1ccccc1Cl)c1cccc(CS(=O)(=O)c2ccc(Cl)cc2)c1 | 0
* N/C(=N/OC(=O)c1ccccc1Cl)c1ccc2nonc2c1 | 0
* Cc1ccc(C(=O)Nc2ccc3ccccc3n2)cc1 | 0
* Cc1nc(C(F)(F)F)ccc1C(=O)Sc1nnc(-c2ccc(C(F)(F)F)nc2C)o1 | 0
* FC(F)(F)c1ccc(NC(=S)Nc2ccc(C(F)(F)F)cc2Cl)c(Cl)c1 | 0
* COc1cccc(C(=O)C(C#N)=C(SC)SC)c1 | 1
* COc1ccc(-c2cc(NS(=O)(=O)c3cccc(F)c3)n(-c3ccc(Cl)c(Cl)c3)n2)cc1 | 0
* FC(F)(F)c1ccc(C2Sc3ccccc3N=C3c4ccccc4CC32)cc1 (stereo unspecified) | 0
* N#CC(C#N)=NNc1ccc(-n2ccc(C(F)(F)F)n2)cc1 | 1

* * *

# test-summary: chemical genetic growth profiling, strain panel (AID 1159580)
# stated-conditions: S. cerevisiae deletion strains, growth OD, locus YHR200W, strain rpn10, hits give low values
In all, about 5,500 compounds went through this assay and about 2,000 (36%) were called active. About 18% were inconclusive and are not listed. Some of the results follow.
measured-quantity: normalized growth

• CCCCC/C=C\C/C=C\C/C=C\C/C=C\CCCC(=O)O = 0.987
• Nc1ncnc2c1ncn2[C@@H]1O[C@H](CO)[C@@H](O)[C@@H]1O = 1.03
• COc1cc(O)c(C(=O)O)c(O)c1 = 1
• CC(=O)N[C@@H](CC(=O)O)C(=O)O = 1.02
• C[C@]12CCC3c4ccc(O)cc4CCC3C1CC[C@@H]2OC(=O)CCC1CCCC1 (stereo partly drawn) = 0.998
• C[C@]12C=CC(=O)C=C1CCC1C2CC[C@]2(C)C(=O)CCC12 (stereo partly drawn) = 0.976
• COc1c2occc2cc2ccc(=O)oc12 = 0.928
• C[C@]12C=CC(=O)C=C1CCC1C2C(=O)C[C@@]2(C)C1CC[C@]2(O)C(=O)CO (stereo partly drawn) = 0.986

* * *

List of normalized growth values.
# test-summary: chemical genetic growth profiling, strain panel (AID 1159580)
# stated-conditions: S. cerevisiae deletion strains, growth OD, locus YDL101C, strain DUN1, hits give low values
Screen size: about 5,500 compounds; about 2,000 (36%) were called active. Another 18% or so got no clear call; they are omitted. The list shows a part of the results.
measured-quantity: normalized growth

- COc1cc(O)c(C(C)=O)c(OC)c1: 1.01 (inactive)
- CCOC(=O)C1C(c2ccc(Br)cc2)C(C(=O)OCC)C(O)(C(F)(F)F)NC1(O)C(F)(F)F (stereo unspecified): 0.99 (inactive)
- COc1cc(O)c(C(=O)O)c(O)c1: 1 (inactive)
- COc1c2c(cc3occ(-c4ccc5c(c4)OCO5)c(=O)c13)OC(C)(C)C=C2: 0.98 (inactive)
- O=c1c(-c2ccc3c(c2)OCO3)coc2cc(O)ccc12: 0.998 (inactive)
- C[C@]12CCC3c4ccc(O)cc4CCC3C1CC[C@@H]2OC(=O)CCC1CCCC1 (stereo partly specified): 0.985 (inactive)
- CC1(C)C=Cc2c(cc3occ(-c4ccc5c(c4)OCO5)c(=O)c3c2O)O1: 1.01 (inactive)
- COC(=O)c1csc2c(C(F)(F)F)cc(N3CCN(S(=O)(=O)c4ccc(C)cc4)CC3)nc12: 1 (inactive)
- COc1cc(O)c(C(=O)c2ccccc2)c(OC)c1: 0.986 (inactive)
- N#Cc1ccc2c(c1)N(CCCN1CCC(O)CC1)c1ccccc1S2: 1 (inactive)
- COc1cc(OC)cc(OC)c1: 1 (inactive)
- O=S(=O)(O)c1cccc2cccc(Cl)c12: 0.984 (inactive)
- CC(C)(C)c1cc(C(C)(C)C)n(-c2ccc([N+](=O)[O-])cc2)n1: 1.01 (inactive)
- CC(C)=CCc1c(O)cc2occ(-c3ccc4c(c3)OCO4)c(=O)c2c1O: 1.01 (inactive)
- COc1cc(O)c(C)c(O)c1: 1.01 (inactive)
- COc1c(O)cc(O)cc1O: 0.992 (inactive)

* * *

# test-summary: chemical genetic growth profiling, strain panel (AID 1159580);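 note: tested at 20 µM; growth read once vehicle control cultures reached saturation at 30 °C; 1 = growth at the plate median or of vehicle wells; lower values mean less growth of the strain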
# stated-conditions: S. cerevisiae deletion strains, growth OD, locus YOL136C, strain PFK27, hits give low values
About 2,000 (36%) of roughly 5,500 compounds were called active. About 18% were inconclusive and are not listed. This is one part of the list.
measured-quantity: normalized growth

• FC(F)(F)c1ccc(C2Sc3ccccc3N=C3c4ccccc4CC32)cc1 (stereo not given) = 0.993
• N/C(=N/OC(=O)c1ccccc1Cl)c1cccc(CS(=O)(=O)c2ccc(Cl)cc2)c1 = 1.03
• O=C(N/N=C\c1cc(Cl)cc(Cl)c1O)c1ccccc1Oc1ccccc1 = 0.913
• CN(NC(=S)Nc1cc(Cl)ccc1Cl)c1ccc(C(F)(F)F)cc1[N+](=O)[O-] = 0.903
• FC(F)(F)c1ccc(NC(=S)Nc2ccc(C(F)(F)F)cc2Cl)c(Cl)c1 = 0.908

* * *

# test-summary: chemical genetic growth profiling, strain panel (AID 1159580);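 note: tested at 20 µM; growth read once vehicle control cultures reached saturation at 30 °C; 1 = growth at the plate median or of vehicle wells; lower values mean less growth of the strain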
# stated-conditions: S. cerevisiae deletion strains, growth OD, locus YNR049C, strain mso1, hits give low values
Out of some 5,500 compounds screened, about 2,000 (36%) were called active. Another 18% or so got no clear call; they are omitted. Some of the results follow.
List of normalized growth values.
measured-quantity: normalized growth

• COC(=O)C[C@H]1C(C)(C)[C@@H](OC(C)=O)[C@@H]2CC3C4CC(=O)O[C@@H](c5ccoc5)[C@]4(C)CCC3[C@@]1(C)C2=O (some centres undefined) = 0.996
• FC(F)(F)COCC(F)(F)F = 1.01
• CN(C)c1nc(N(C)C)nc(N(C)C)n1 = 0.96
• CCC(=O)O[C@H]1CCC2C3CCc4cc(O)ccc4C3CC[C@@]21C (some centres undefined) = 0.986
• CC(=O)Oc1ccc2c(c1)CCC1C2CC[C@@]2(C)C1CC[C@@H]2OC(C)=O (some centres undefined) = 0.99
• COc1ccc(Cc2nccc3cc(OC)c(OC)cc23)cc1OC = 0.999
• COc1c(O)cc(O)cc1O = 0.994
• COc1cc(OC)c(C(C)=O)c(O)c1C = 0.937
• COC(=O)C1=CO[C@@H](O[C@@H]2O[C@H](CO)[C@@H](O)[C@H](O)[C@H]2O)[C@@H]2[C@@H](C)[C@@H](O)C[C@H]12 = 0.997
• CCCC(=O)Nc1ncnc2c1ncn2C1O[C@@H]2COP(=O)(O)O[C@H]2[C@H]1OC(=O)CCC (some centres undefined) = 0.981
• Cn1nnnc1SCC1=C(C(=O)O)N2C(=O)C(NC(=O)C(OC=O)c3ccccc3)C2SC1 (centres undefined) = 0.988
• COc1cc(O)c(C)c(O)c1 = 1.01
• CCCCCN=C(N)N/N=C\c1c[nH]c2ccc(OC)cc12 = 1.01
• Cn1cnc([N+](=O)[O-])c1Sc1ncnc2nc[nH]c12 = 1.01

* * *

# test-summary: chemical genetic growth profiling, strain panel (AID 1159580);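 note: tested at 20 µM; growth read once vehicle control cultures reached saturation at 30 °C; 1 = growth at the plate median or of vehicle wells; lower values mean less growth of the strain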
# stated-conditions: S. cerevisiae deletion strains, growth OD, locus YGR252W, strain gcn5, hits give low values
Among all 5,500 compounds or so, about 2,000 (36%) were called active. About 18% were inconclusive and are not listed. The list shows a part of the results.
measured-quantity: normalized growth

- CCCCC(=O)N(Cc1ccc(-c2ccccc2-c2nn[nH]n2)cc1)[C@H](C(=O)O)C(C)C: 1.1
- CC1=C(C(=O)O)N2C(=O)[C@@H](NC(=O)[C@H](N)C3=CCC=CC3)C2SC1 (some centres not stated): 1.05
- Cc1cc(O)c2c(c1O)C(=O)c1c(O)cc(C)c(O)c1C2=O: 1.16
- CC(=O)O[C@@H]1CC2C(C)(C)C(=O)[C@@H]3O[C@@H]3[C@]2(C)C2CC[C@]3(C)C(=CC(=O)O[C@H]3c3ccoc3)[C@@]21C (some centres not stated): 0.997
- N#Cc1ccc2c(c1)N(CCCN1CCC(O)CC1)c1ccccc1S2: 1.01
- COP(=S)(OC)SCn1nnc2ccccc2c1=O: 0.824
- COc1cc2c(cc1-c1coc3c4c(c(OC)cc3c1=O)OC(C)(C)C=C4)OCO2: 0.863
- COc1cc(OC)cc(OC)c1: 0.24
- O=C1c2ccc(O)c(O)c2C(=O)c2c(O)ccc(O)c21: 0.977
- COc1cc2ccc(=O)oc2cc1O: 1
- COc1cc(OC)c2c(c1Cl)OC1(C2=O)C(O)=CC(=O)CC1C (configuration not stated): 0.915
- C=C(C)c1cc2cc(C(C)=O)c(O)cc2o1: 0.916
- Cn1cnc([N+](=O)[O-])c1Sc1ncnc2nc[nH]c12: 0.974
- CCC(=O)O[C@H]1CCC2C3CCc4cc(O)ccc4C3CC[C@@]21C (some centres not stated): 0.973
- CC(=O)N[C@@H](CC(=O)O)C(=O)O: 0.959
- Fc1ccc(C(c2ccc(F)cc2)N2CCN(C/C=C/c3ccccc3)CC2)cc1: 1.07
- COc1c2c(cc3occ(-c4ccc5c(c4)OCO5)c(=O)c13)OC(C)(C)C=C2: 0.983
- Cc1cc(C)nc(NS(=O)(=O)c2ccc(N)cc2)n1: 1.17
- O=c1n(CCCN2CCN(c3cccc(Cl)c3)CC2)nc2ccccn12: 0.993
- CC1(C)S[C@@H]2[C@H](NC(=O)COc3ccccc3)C(=O)N2[C@H]1C(=O)O: 1.02
- O=c1c(-c2ccc3c(c2)OCO3)coc2cc(O)ccc12: 0.932
- CC(=O)Oc1ccc2c(c1)CCC1C2CC[C@@]2(C)C1CC[C@@H]2OC(C)=O (some centres not stated): 0.947
- CC1(C)C[C@@H]2C(=O)CC[C@H]3O[C@]3(C)CC[C@H]21: 1.01
- Cc1cccc(N(C)C(=S)Oc2ccc3ccccc3c2)c1: 1.02
- O=C1OC(=O)C2C3CCC(O3)C12 (configuration not stated): 0.982
- CNC(=O)CSP(=S)(OC)OC: 0.995
- COc1ccc(Cc2nccc3cc(OC)c(OC)cc23)cc1OC: 0.949
- O=c1ccc2cc(O[C@@H]3O[C@H](CO)[C@@H](O)[C@H](O)[C@H]3O)c(O)cc2o1: 0.997
- C/C=C(\C)C(=O)OC1[C@@H]2C=C3C4CC(=O)O[C@@H](c5ccoc5)[C@]4(C)CCC3[C@@](C)(C2=O)[C@@H](C(O)C(=O)OC)C1(C)C (some centres not stated): 1.02
- CC(C)(O)CC[C@@H](O)[C@](C)(O)C1CC[C@@]2(O)C3=CC(=O)C4C[C@@H](O)[C@@H](O)C[C@]4(C)C3CC[C@]12C (some centres not stated): 0.995
- Nc1ncnc2c1ncn2[C@@H]1O[C@H](CO)[C@@H](O)[C@@H]1O: 1.06
- O=c1cc(-c2ccc(O)cc2)oc2cc(O[C@@H]3O[C@H](CO)[C@@H](O)[C@H](O)[C@H]3O[C@@H]3OC[C@](O)(CO)[C@H]3O)cc(O)c12: 1.04

Attribution: PubChem BioAssay AID1159580
